- ASSAY_PROCEDURE: gradient 5% acetonitrile 3 min, to 50% in 2 min, to 85% in 15 min, held 3 min, 100 µL/min
- STUDY_CONDITIONS: column: Zorbax Extend-C18 2.1 x 50 mm; eluents: water / acetonitrile, 0.1% formic acid
Provide the recorded RP-LC retention time for the entries that follow.

Past entries and their recorded results:
In [3]: df
Out[3]:
                                   compound  data_value
0  CCn1c(C(=O)NCCCOC(C)C)cc2c(-c3cccs3)nn(-c3ccccc3)c21      1150 s
1  CCn1cc(-c2nc(-c3ccc(Cl)cc3)no2)c(=O)c2cc(F)c(N3CCOCC3)cc21      1020 s
2  Cc1cc(N(C)C)nc(N2CCN(S(=O)(=O)c3ccc(Br)cc3)CC2)n1       733 s

Give a short answer stating reported RP-LC retention time for CCc1cccc(NC(=O)C2(Cc3ccccc3)CCCCC(=O)N2)c1 (centres undefined) .
931 s
